- test.target: T1, hu4-1BB-Fc (R&D Systems) (human, UniProt Q07011 24-186)
- T1 construct: Bought; also called human 4-1BB; not shown: human IgG Fc of the bought fusion
- assay.comment: SPR (Biacore 8K), hu4-1BB-Fc captured by anti-human IgG Fc; apparent value, 1:1 fit
- Method: The anti-human IgG Fc antibody (GE Healthcare) was immobilized on a CM5 sensor chip using standard amine chemistry: the carboxyl groups on the chip were activated using 1-ethyl-3-(3-dimethylaminopropyl)-carbodiimide (EDC) and N-hydroxysuccinimide (NHS). […] The binding assay was carried out with a contact time of 180 s, a dissociation time of 1200 s or 3000 s and a flow rate of 30 μL/min. […] Data were evaluated with Biacore Evaluation software. […]
kon listing for selected binders.
Number in M⁻¹ s⁻¹, nothing else.

Recorded results for 4 binders are shown here.
>>> test_value("multimeric protein SEQ ID NO: 42 (designed binder) QDSTSDLIPAPPLSKVPLQQNFQDNQFHGKWYVVGQAGNIRLREDKDPIKMMATIYELKEDKSYDVTMVKFDDKKCMYDIWTFVPGSQPGEFTLGKIKSFPGHTSSLVRVVSTNYNQHAMVFFKFVFQNREEFYITLYGRTKELTSELKENFIRFSKSLGLPENHIVFPVPIDQCIDGAEAAAKEAAAKEAAAKAGVRLWATRQAMLGQVHEVPEGWLIFVAEQEELYVRVQNGFRKVQLEARTPLGGSGGAPEQKLISEEDLGSHHHHHHHHHH")
61300
>>> test_value("multimeric protein SEQ ID NO: 47 (designed binder) QDSTSDLIPAPPLSKVPLQQNFQDNQFHGKWYVVGQAGNIRLREDKDPIKMMATIYELKEDKSYDVTMVKFDDKKCMYDIWTFVPGSQPGEFTLGKIKSFPGHTSSLVRVVSTNYNQHAMVFFKFVFQNREEFYITLYGRTKELTSELKENFIRFSKSLGLPENHIVFPVPIDQCIDGGGGGSGGGGSGGGGSKPLDGEYFTLQIRGRERFEMFRELNEALELKDAQAGKEPGGSGGAPEQKLISEEDLGSHHHHHHHHHH")
98700
>>> test_value("multimeric protein SEQ ID NO: 39 (designed binder) QDSTSDLIPAPPLSKVPLQQNFQDNQFHGKWYVVGQAGNIRLREDKDPIKMMATIYELKEDKSYDVTMVKFDDKKCMYDIWTFVPGSQPGEFTLGKIKSFPGHTSSLVRVVSTNYNQHAMVFFKFVFQNREEFYITLYGRTKELTSELKENFIRFSKSLGLPENHIVFPVPIDQCIDGGGGGSGVRLWATRQAMLGQVHEVPEGWLIFVAEQEELYVRVQNGFRKVQLEARTPLGGSGGAPEQKLISEEDLGSHHHHHHHHHH")
68800
>>> test_value("multimeric protein SEQ ID NO: 41 (designed binder) QDSTSDLIPAPPLSKVPLQQNFQDNQFHGKWYVVGQAGNIRLREDKDPIKMMATIYELKEDKSYDVTMVKFDDKKCMYDIWTFVPGSQPGEFTLGKIKSFPGHTSSLVRVVSTNYNQHAMVFFKFVFQNREEFYITLYGRTKELTSELKENFIRFSKSLGLPENHIVFPVPIDQCIDGGSPTPTPTTPTPTPTGVRLWATRQAMLGQVHEVPEGWLIFVAEQEELYVRVQNGFRKVQLEARTPLGGSGGAPEQKLISEEDLGSHHHHHHHHHH")
66200

Now for another entry.
What does the data say about its kon? Entry: 4-1BB-specific lipocalin mutein SEQ ID NO: 64 (designed binder, Monomeric hNGAL mutein; also called 4-1BB-targeting lipocalin mutein as included in the multimeric proteins) QDSTSDLIPAPPLSKVPLQQNFQDNQFHGKWYVVGQAGNIRLREDKDPIKMMATIYELKEDKSYDVTMVKFDDKKCMYDIWTFVPGSQPGEFTLGKIKSFPGHTSSLVRVVSTNYNQHAMVFFKFVFQNREEFYITLYGRTKELTSELKENFIRFSKSLGLPENHIVFPVPIDQCIDG
92700

The values you see were collected from patent US20230227568A1.
